Recorded self-cleavage values for a group of variants are listed next.
B1: HDV Ribozyme (parent)
chain: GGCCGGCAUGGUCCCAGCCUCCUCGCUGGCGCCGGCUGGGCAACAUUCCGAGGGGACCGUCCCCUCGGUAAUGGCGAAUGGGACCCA

Variants of: B1
Assay: self-cleavage, relative activity (ratio to wild type); higher = more cleavage; co-transcriptional

[
  {
    "variant": "C19U G28C",
    "self-cleavage": 0.0875
  },
  {
    "variant": "U60A U65C",
    "self-cleavage": 1.08
  },
  {
    "variant": "C19G C63G",
    "self-cleavage": 0.229
  },
  {
    "variant": "C4A C58U",
    "self-cleavage": 0.424
  },
  {
    "variant": "A43U U72G",
    "self-cleavage": 0.256
  },
  {
    "variant": "C32G A77C",
    "self-cleavage": 0.0536
  },
  {
    "variant": "C32A U60G",
    "self-cleavage": 0.138
  },
  {
    "variant": "C19U G82U",
    "self-cleavage": 0.0702
  },
  {
    "variant": "G35U C62U",
    "self-cleavage": 0.486
  },
  {
    "variant": "U20G",
    "self-cleavage": 0.205
  },
  {
    "variant": "G59A C75U",
    "self-cleavage": 0.159
  },
  {
    "variant": "G5U C63U",
    "self-cleavage": 0.38
  },
  {
    "variant": "C7A C58U",
    "self-cleavage": 0.731
  },
  {
    "variant": "G6C U27C",
    "self-cleavage": 0.0923
  },
  {
    "variant": "C22U U65A",
    "self-cleavage": 0.831
  },
  {
    "variant": "G31C",
    "self-cleavage": 0.363
  },
  {
    "variant": "C3G C64G",
    "self-cleavage": 0.546
  },
  {
    "variant": "C64U C86U",
    "self-cleavage": 0.772
  },
  {
    "variant": "C4A C33A",
    "self-cleavage": 0
  },
  {
    "variant": "C18G C33U",
    "self-cleavage": 0.128
  },
  {
    "variant": "C13U U47G",
    "self-cleavage": 0.95
  },
  {
    "variant": "U27A C63U",
    "self-cleavage": 0.813
  },
  {
    "variant": "A42U A83G",
    "self-cleavage": 0.177
  },
  {
    "variant": "G68A C86A",
    "self-cleavage": 0.822
  },
  {
    "variant": "G11C U60C",
    "self-cleavage": 0.511
  },
  {
    "variant": "C33G G73C",
    "self-cleavage": 0.253
  },
  {
    "variant": "U27C G76A",
    "self-cleavage": 0.869
  },
  {
    "variant": "A8C U20C",
    "self-cleavage": 0
  },
  {
    "variant": "G11A A56U",
    "self-cleavage": 0.487
  },
  {
    "variant": "C13U C15U",
    "self-cleavage": 0.733
  },
  {
    "variant": "G29U C44G",
    "self-cleavage": 0.0326
  },
  {
    "variant": "C7G G82A",
    "self-cleavage": 0.113
  },
  {
    "variant": "C36A U79A",
    "self-cleavage": 0.0615
  },
  {
    "variant": "C24U G76A",
    "self-cleavage": 0.59
  },
  {
    "variant": "G6U G53U",
    "self-cleavage": 0.643
  },
  {
    "variant": "C14G C85G",
    "self-cleavage": 0.415
  },
  {
    "variant": "C4A G76C",
    "self-cleavage": 0.253
  },
  {
    "variant": "G40C G54A",
    "self-cleavage": 0.398
  },
  {
    "variant": "G1U C18G",
    "self-cleavage": 0.151
  },
  {
    "variant": "C62G A70C",
    "self-cleavage": 0.554
  },
  {
    "variant": "G10U U46G",
    "self-cleavage": 0.597
  }
]
